# Experimental target: human collagen type I (acid soluble, extracted from placenta, Sigma C7774) (human) (UniProt P02452)
# Sequence (P02452 162-1218 limits assumed, chain 1 of 2): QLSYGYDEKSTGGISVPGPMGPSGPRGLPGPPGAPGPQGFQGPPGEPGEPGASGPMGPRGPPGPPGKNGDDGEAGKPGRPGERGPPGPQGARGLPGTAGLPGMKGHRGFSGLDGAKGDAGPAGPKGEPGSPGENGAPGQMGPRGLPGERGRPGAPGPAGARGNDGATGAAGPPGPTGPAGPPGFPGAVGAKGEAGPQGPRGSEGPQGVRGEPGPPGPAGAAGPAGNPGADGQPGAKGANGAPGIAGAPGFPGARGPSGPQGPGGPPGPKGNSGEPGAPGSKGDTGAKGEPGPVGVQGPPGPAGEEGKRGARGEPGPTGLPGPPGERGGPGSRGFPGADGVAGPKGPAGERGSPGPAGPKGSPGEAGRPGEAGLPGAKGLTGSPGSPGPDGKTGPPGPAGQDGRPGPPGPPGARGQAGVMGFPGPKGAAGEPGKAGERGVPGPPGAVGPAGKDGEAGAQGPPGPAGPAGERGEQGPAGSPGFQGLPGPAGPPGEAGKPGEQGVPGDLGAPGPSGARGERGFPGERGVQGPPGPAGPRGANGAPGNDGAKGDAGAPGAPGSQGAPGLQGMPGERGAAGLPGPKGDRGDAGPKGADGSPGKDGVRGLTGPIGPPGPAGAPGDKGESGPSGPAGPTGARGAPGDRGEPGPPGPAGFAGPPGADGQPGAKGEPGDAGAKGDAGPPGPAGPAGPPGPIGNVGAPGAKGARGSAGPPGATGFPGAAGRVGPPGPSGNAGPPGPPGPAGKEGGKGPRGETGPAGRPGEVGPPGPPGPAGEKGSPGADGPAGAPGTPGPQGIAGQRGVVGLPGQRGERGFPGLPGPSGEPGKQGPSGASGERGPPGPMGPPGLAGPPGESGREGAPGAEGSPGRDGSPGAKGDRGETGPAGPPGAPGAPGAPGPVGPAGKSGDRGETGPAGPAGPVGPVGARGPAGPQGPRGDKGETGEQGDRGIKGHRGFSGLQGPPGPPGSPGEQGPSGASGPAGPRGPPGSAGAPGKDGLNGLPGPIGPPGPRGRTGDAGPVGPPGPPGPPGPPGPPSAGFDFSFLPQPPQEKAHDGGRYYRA
# Sequence (P08123 80-1119 limits assumed, chain 2 of 2, further chain): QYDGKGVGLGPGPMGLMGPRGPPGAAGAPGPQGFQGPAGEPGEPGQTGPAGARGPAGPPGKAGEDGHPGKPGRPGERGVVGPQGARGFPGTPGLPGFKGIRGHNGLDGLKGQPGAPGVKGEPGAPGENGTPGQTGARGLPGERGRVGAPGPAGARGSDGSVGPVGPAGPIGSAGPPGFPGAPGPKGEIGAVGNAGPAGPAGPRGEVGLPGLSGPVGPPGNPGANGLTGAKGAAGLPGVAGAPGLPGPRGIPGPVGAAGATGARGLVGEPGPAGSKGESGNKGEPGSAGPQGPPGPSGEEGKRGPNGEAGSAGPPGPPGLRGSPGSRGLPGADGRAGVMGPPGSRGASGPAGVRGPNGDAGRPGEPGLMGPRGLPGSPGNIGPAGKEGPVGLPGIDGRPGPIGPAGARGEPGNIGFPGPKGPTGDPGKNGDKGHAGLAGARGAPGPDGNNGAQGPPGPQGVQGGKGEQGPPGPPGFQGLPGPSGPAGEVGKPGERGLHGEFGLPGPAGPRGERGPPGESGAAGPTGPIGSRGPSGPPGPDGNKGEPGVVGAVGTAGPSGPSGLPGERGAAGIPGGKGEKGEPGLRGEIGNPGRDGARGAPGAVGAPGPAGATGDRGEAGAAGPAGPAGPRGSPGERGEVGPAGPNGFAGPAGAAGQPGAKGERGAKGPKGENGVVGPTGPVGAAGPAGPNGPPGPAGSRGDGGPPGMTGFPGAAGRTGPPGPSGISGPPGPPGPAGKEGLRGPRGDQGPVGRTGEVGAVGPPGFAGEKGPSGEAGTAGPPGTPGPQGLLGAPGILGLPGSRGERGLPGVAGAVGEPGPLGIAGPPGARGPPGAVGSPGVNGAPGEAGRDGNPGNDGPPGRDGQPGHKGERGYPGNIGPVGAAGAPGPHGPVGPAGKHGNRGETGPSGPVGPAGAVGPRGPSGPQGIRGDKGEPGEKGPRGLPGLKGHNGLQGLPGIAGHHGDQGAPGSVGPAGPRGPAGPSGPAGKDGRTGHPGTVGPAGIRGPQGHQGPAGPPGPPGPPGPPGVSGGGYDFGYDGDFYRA
# Assay procedure: dried collagen assay
Bridge positions count the residues as written; N and C are the ends. Ends that are not written are not given here.
Quick reference for % bound among some binders
The reply should be a number in %, with the unit left off.

Use the examples below as a reference point.
>>> value_observed("GQWHCTTRFPHHRCLYG (not fully specified; Gd^T-GQWHCTTRFPHHrCLYG) [Comp ID 902]")
7
>>> value_observed("ERNCVLNDFRWTCGGD (disulfide 4-13 (inferred)) [SEQ ID NO: 75]")
10
>>> value_observed("SWSCGGDHNAWKCQYS (disulfide 4-13 (inferred)) [SEQ ID NO: 36]")
7

Now for another entry.
# % bound lookup, item LWNCHGTDANWKCVLN (disulfide 4-13 (inferred)) [SEQ ID NO: 37] 7
